Molecular target: T1, NEMO (NF-κB essential modulator), tag-free, biotinylated (human, UniProt Q9Y6K9 1-419, biotin (in vitro biotinylation kit, biotin:NEMO molar ratio 9:1))
T1 construct: NEMO, NF-κB essential modulator, human, 48 kDa; also called biotinylated NEMO; biotin-NEMO; source: E. coli BL21(DE3), purified (glutathione sepharose), GST removed with thrombin, biotinylated in vitro
Experiment: peptide or protein array; Invitrogen Protoarray v4.0, about 8,400 human proteins spotted on nitrocellulose-coated glass slides; 10 µg biotinylated tag-free NEMO in 120 µl probing buffer (PBS, 0.5 mM DTT, 5 mM MgCl2, 5% glycerol, 0.05% Triton X-100), 4°C, 1.5 h; bound NEMO detected with labelled streptavidin; hits Z-score > 3, hits of the biotin-GST control array subtracted
Settings: both partners purified

# binder, binding result
measured = [
    ("Growth arrest and DNA-damage-inducible, gamma (natural protein, human, UniProt O95257 1-159, looked up, Growth arrest and DNA-damage-inducible, gamma, human; also called GADD45G; source: insect cell/baculovirus, purified, spotted (Invitrogen Protoarray v4.0)) MTLEEVRGQDTVPESTARMQGAGKALHELLLSAQRQGCLTAGVYESAKVLNVDPDNVTFCVLAAGEEDEGDIALQIHFTLIQAFCCENDIDIVRVGDVQRLAAIVGAGEEAGAPGDLHCILISNPNEDAWKDPALEKLSLFCEESRSVNDWVPSITLPE", "binds"),
    ("Myosin light chain 5, regulatory (natural protein, human, UniProt Q02045-1 1-173, looked up, Myosin light chain 5, regulatory, human; also called MYL5; source: insect cell/baculovirus, purified, spotted (Invitrogen Protoarray v4.0)) MASRKTKKKEGGALRAQRASSNVFSNFEQTQIQEFKEAFTLMDQNRDGFIDKEDLKDTYASLGKTNVKDDELDAMLKEASGPINFTMFLNLFGEKLSGTDAEETILNAFKMLDPDGKGKINKEYIKRLLMSQADKMTAEEVDQMFQFASIDVAGNLDYKALSYVITHGEEKEE", "binds"),
    ("PHD finger protein 7 (natural protein, human, UniProt Q9BWX1-1 1-381, looked up, PHD finger protein 7, human; also called PHF7; source: insect cell/baculovirus, purified, spotted (Invitrogen Protoarray v4.0)) MKTVKEKKECQRLRKSAKTRRVTQRKPSSGPVCWLCLREPGDPEKLGEFLQKDNISVHYFCLILSSKLPQRGQSNRGFHGFLPEDIKKEAARASRKICFVCKKKGAAINCQKDQCLRNFHLPCGQERGCLSQFFGEYKSFCDKHRPTQNIQHGHVGEESCILCCEDLSQQSVENIQSPCCSQAIYHRKCIQKYAHTSAKHFFKCPQCNNRKEFPQEMLRMGIHIPDRDAAWELEPGAFSDLYQRYQHCDAPICLYEQGRDSFEDEGRWCLILCATCGSHGTHRDCSSLRSNSKKWECEECSPAAATDYIPENSGDIPCCSSTFHPEEHFCRDNTLEENPGLSWTDWPEPSLLEKPESSRGRRSYSWRSKGVRITNSCKKSK", "binds"),
]
